Biological target: HLA-B*44:02
Assay: IEDB peptide-MHC binding, purified MHC/direct/fluorescence; filed as Kd, often an IC50 or EC50 that approximates it; bounds were set here for any values at or beyond the usual limits of such assays
Conditions: source organism: Francisella tularensis subsp. holarctica LVS
pKd: −log10 of the molar value.
measured endpoint: pKd

Exercise: Using known records, supply pKd for REIGDISYL
Solution: ≤ 4.70

###

Target: HLA-B*07:02
Assay: IEDB peptide-MHC binding, purified MHC/competitive/radioactivity; filed as Kd, often an IC50 or EC50 that approximates it; bounds were set here for any values at or beyond the usual limits of such assays
Settings: source organism: Mammarenavirus lassaense
measured endpoint: Kd (µM)
// units = µM; emit number, no label

Exercise: Return reported Kd for target or system HLA-B*07:02, item FPYIMGSVEL .
Solution: 0.241

###

Target: HLA-B*08:03
Assay: IEDB peptide-MHC binding, purified MHC/direct/fluorescence; filed as Kd, often an IC50 or EC50 that approximates it; bounds were set here for any values at or beyond the usual limits of such assays
Details: source organism: Vibrio parahaemolyticus RIMD 2210633
measured endpoint: Kd

Exercise: Using known records, supply Kd for ILRPLGIEY
Solution: ≥ 20 µM

###

Biological target: HLA-B*35:01
Experiment: IEDB peptide-MHC binding, purified MHC/competitive/radioactivity; filed as Kd, often an IC50 or EC50 that approximates it; bounds were set here for any values at or beyond the usual limits of such assays
Details: source organism: SARS coronavirus Tor2
Listing: Kd of selected sequences
// units = nM; emit number, no label

Use these answered entries as a reference point.
Exercise: Using known records, supply Kd for VPYNMRVIHF
Solution: 1440

Exercise: Using known records, supply Kd for CPAVAVHDF
Solution: 14.4

Exercise: Using known records, supply Kd for MPYVFTLLF
Solution: 0.59

Exercise: Using known records, supply Kd for LPIDKCSRII
Solution: 2550

Next:
Exercise: Using known records, supply Kd for LPFHRWHTM
Solution: 7.16

###

Molecular target: HLA-A*26:01
Assay: IEDB peptide-MHC binding, purified MHC/competitive/fluorescence; filed as Kd, often an IC50 or EC50 that approximates it; bounds were set here for any values at or beyond the usual limits of such assays
Settings: source organism: Shigella boydii CDC 3083-94
pKd: −log10 of the molar value.
measured endpoint: pKd

Exercise: Using known records, supply pKd for MAMTGLPQA
Solution: ≤ 4.70

###

Target: HLA-B*35:01
Test: IEDB peptide-MHC binding, purified MHC/competitive/fluorescence; filed as Kd, often an IC50 or EC50 that approximates it; bounds were set here for any values at or beyond the usual limits of such assays
Conditions: source organism: Vibrio parahaemolyticus RIMD 2210633
measured endpoint: pKd
Keep in mind that pKd stands for -log10 of concentration in molar terms.

Exercise: Using known records, supply pKd for ILRPLGIEY
Solution: 6.65

###

Target: HLA-A*26:01
Assay: IEDB peptide-MHC binding, purified MHC/direct/fluorescence; filed as Kd, often an IC50 or EC50 that approximates it; bounds were set here for any values at or beyond the usual limits of such assays
Conditions: source organism: Entamoeba histolytica HM-1:IMSS
measured endpoint: Kd

Exercise: Using known records, supply Kd for RQRHYFDSA
Solution: ≥ 20 µM
